- Test system: Malme-3M
- PROTOCOL_DETAILS: NCI tumour cell line growth inhibition, 48 h
Active and inactive are the calls of the source. No stated cut-off is given here; in the data, active = GI50 up to about 1.1 µM and inactive = higher.
QUANTITY: GI50

Before answering, review these 5 worked examples.
COMPOUND	REPORTED_MEASUREMENT
O=C(NNC(=O)c1ccncc1)C(=O)Nc1cc(Cl)c(Cl)cc1Cl	> 100 µM (inactive)
NC(CCCCN/C=C1/N=C(c2ccccc2)OC1=O)C(=O)O (stereo unspecified)	> 100 µM (inactive)
NC(=O)c1nnsc1NN=O	> 100 µM (inactive)
Oc1c(C(O)(c2ccccc2)c2ccc3ccccc3c2O)ccc2ccccc12	11.8 µM (inactive)
O=[N+]([O-])c1ccc2[nH]c(=S)[nH]c(=S)c2c1	> 100 µM (inactive)

Data request: Need GI50, item `Brc1ccccc1-c1ncc(-c2ccccc2)o1`
Data returned: 26.7 µM (inactive)
